Molecular target: G810S mutant RET kinase (Homo sapiens, UniProt P07949, G810S)
Test: biochemical
pIC50: −log10 of the molar value.
// classify(record): look up pIC50 in ranges L (below 6), M (6 to below 7), H (7 or more)

>>> label_class("CC(C)n1c2c(c3c(N)ncnc31)-c1ccc(Cl)c(F)c1C(=O)NC2")
"L"
>>> label_class("COc1ccc2cc3n(c2c1)C(=O)NCc1c-3c2c(N)ncnc2n1C(C)C")
"M"
>>> label_class("CC(C)n1c2c(c3c(N)ncnc31)-c1cnn(C3CC3)c1C(=O)NC2 [Example 109, 2,2,2-trifluoroacetate]")
"L"
>>> label_class("CC(=O)N1CCC(n2c3c(c4c(N)ncnc42)-c2noc(C4CC4)c2C(O)CC3)C1 (centres unmarked) [Example 134, 2,2,2-trifluoroacetate]")
"M"
>>> label_class("CC1Cc2c(c3c(N)ncnc3n2C(C)C)-c2noc(C3CC3)c2C1O (centres unmarked)")
"H"
>>> label_class("Cc1cc2n(n1)C(=O)NCc1c-2c2c(N)ncnc2n1C(C)C [Example 105, 2,2,2-trifluoroacetate]")
"L"

Lookup: Assign a category based on measured pIC50 for Nc1ncnc2c1c1c(n2C(CF)CF)CC[C@H](O)c2c-1noc2C1CC1 (single isomer, unassigned) and give only the class name.
Found: H

Lookup: For `CC(C)n1c2c(c3c(N)ncnc31)-c1noc(C3CC3)c1CN(C(=O)Cc1ccccc1)C2` then?
Found: L

* * *

Molecular target: G810R mutant RET kinase (Homo sapiens, UniProt P07949, G810R)
As shown below, each of these compounds has a reported IC50 value.

Please review the entries below; each comes with its answer.
>>> test_result("COC(=O)[C@H]1C[C@H](n2c3c(c4c(N)ncnc42)-c2noc(C4CC4)c2C(=O)CC3)C1")
"157 nM"
>>> test_result("Nc1ncnc2c1c1c(n2C2CCNC2)CCC(O)c2c-1noc2C1CC1 (stereo not shown) [Example 132]")
"4460 nM"
>>> test_result("Nc1ncnc2c1c1c(n2C2CCNC2)CCC(O)c2c-1noc2C1CC1 (stereo not shown) [Example 133]")
"6140 nM"

Now for a further compound.
Lookup: Give the measured IC50 of C[C@H](n1c2c(c3c(N)ncnc31)-c1noc(C3CC3)c1[C@H](O)CC2)C(F)(F)F (single isomer, unassigned) .
Found: 85 nM

* * *

Molecular target: HEK-293 cells expressing a G810R mutant RET Kif5b-RET fusion protein (Homo sapiens, UniProt P07949, G810R)
Construct: KIF5B (N-terminal portion incl. coiled-coil); the other entry of the earlier key: KIF5B (P33176, Kinesin-1 heavy chain)
Sequence (P07949 713-1063 G810R limits assumed): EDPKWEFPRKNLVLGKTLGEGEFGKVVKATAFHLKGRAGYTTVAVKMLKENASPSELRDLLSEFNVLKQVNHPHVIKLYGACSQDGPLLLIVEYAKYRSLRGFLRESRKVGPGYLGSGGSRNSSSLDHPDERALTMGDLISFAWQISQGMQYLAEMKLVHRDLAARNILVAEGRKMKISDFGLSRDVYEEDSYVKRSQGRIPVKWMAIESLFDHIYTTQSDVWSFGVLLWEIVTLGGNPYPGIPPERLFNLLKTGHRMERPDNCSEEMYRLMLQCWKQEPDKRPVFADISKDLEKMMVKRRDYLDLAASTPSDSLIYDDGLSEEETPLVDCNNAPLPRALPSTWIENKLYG
Assay: RET G810R Mutant Cell Assay (phospho-RET Tyr1062)
Conditions: HEK-293 Kif5b-RET G810R, 1 hour incubation, phospho-RET normalized to GAPDH
The entries below come with measured IC50 values attached.
Provide the reading as a plain figure in nM.

>>> test_result("CC(C)n1c2c(c3c(N)ncnc31)-c1cc3c(F)cccc3n1C(=O)NC2 [Example 83]")
1060
>>> test_result("CC(C)n1c2c(c3c(N)ncnc31)-c1noc(C3CC3)c1C(=O)NC2 [Example 19, 2,2,2-trifluoroacetate]")
262
>>> test_result("CC(C)n1c2c(c3c(N)ncnc31)-c1noc(C3CC3)c1[C@H](O)[C@@H](C)C2 (single isomer, unassigned) [Example 65]")
621
>>> test_result("Nc1ncnc2c1c1c(n2C2CCCC2)CCC(O)c2c-1noc2C1CC1 (centres unmarked) [Example 120]")
35

Lookup: Returns the measured IC50 for the input compound. Input: CNC(=O)c1ccc2c(Cl)c3n(c2c1)C(=O)NCc1c-3c2c(N)ncnc2n1C(C)C [Example 74]
Found: 2940

* * *

Target: G810S mutant RET kinase (Homo sapiens, UniProt P07949, G810S)
Experiment: biochemical
Cut-off 1000 nM on IC50: below means Criterion met, at or above means Criterion not met.

These recorded examples may help you get a feel for the data.
>>> label_class("CC(C)n1c2c(c3c(N)ncnc31)-c1noc(C3CC3)c1C(=O)OC2")
"Criterion met"
>>> label_class("CC(C)n1c2c(c3c(N)ncnc31)-c1noc(C3CC3)c1CN(C)C2")
"Criterion not met"
>>> label_class("COc1ccc2c(c1)cc1n2C(=O)NCc2c-1c1c(N)ncnc1n2C(C)C")
"Criterion met"
>>> label_class("CC(C)n1c2c(c3c(N)ncnc31)-c1cc3ccc(C(=O)Nc4ccn(CC(=O)N(C)C)n4)cc3n1CCC2")
"Criterion not met"
>>> label_class("CC(C)n1c2c(c3c(N)ncnc31)-c1noc(C3CC3)c1[C@@H](O)CC2 (single isomer, unassigned)")
"Criterion met"

Lookup: Please indicate whether the reported IC50 of CC1(n2c3c(c4c(N)ncnc42)-c2noc(C4CC4)c2C(O)CC3)CC1 (centres unmarked) is strictly below 1000 nM.
Found: Criterion met

Lookup: Note, next up: `CC(C)n1c2c(c3c(N)ncnc31)-c1cc3ccc(C(=O)Nc4ccn(-c5ccccc5)n4)cc3n1CCC2`
Found: Criterion met

Lookup: Lookup CC(C)n1c2c(c3c(N)ncnc31)-c1noc(C3CC3)c1[C@H](O)CC2 (single isomer, unassigned)
Found: Criterion met

* * *

Target: G810S mutant RET kinase (Homo sapiens, UniProt P07949, G810S);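 further: HTRF KinEASE-TK kinase assay with recombinant enzyme, 1 h at 22 °C, dual-wavelength ratiometric read-out, percent of control (DMSO-only = 100, pre-quenched reaction = 0)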
Test: biochemical
# reported pIC50; entries follow
Quick note: pIC50 values are minus log10 of concentrations in mol/L.

Known pIC50 results, listed for orientation:
>>> test_result("CC(C)n1c2c(c3c(N)ncnc31)-c1cc3ccc(C(=O)Nc4ccccn4)cc3n1CCC2 [Example 90]")
5.80
>>> test_result("Nc1ncnc2c1c1c(n2C2CCOC2)CCC(=O)c2c-1noc2C1CC1 (centres unmarked) [Example 141]")
6.39
>>> test_result("CO[C@H]1CCc2c(c3c(N)ncnc3n2C(C)C)-c2noc(C3CC3)c21 (single isomer, unassigned) [Example 59]")
6.07
>>> test_result("CC(C)n1c2c(c3c(N)ncnc31)-c1c(Cl)c3ccc(C(=O)NC4CC4)cc3n1CCC2 [Example 102]")
6.74
>>> test_result("CC(C)n1c2c(c3c(N)ncnc31)-c1noc(C3CC3)c1C(=O)N(CC1CC1)C2 [Example 5]")
6.86
>>> test_result("CC(C)n1c2c(c3c(N)ncnc31)-c1noc(C3CC3)c1S(=O)(=O)CC2 [Example 23, 2,2,2-trifluoroacetate]")
7.27
>>> test_result("CC(C)n1c2c(c3c(N)ncnc31)-c1ccc(Cl)cc1C(=O)NC2 [Example 45]")
6.25

Lookup: Return reported pIC50; argument: Nc1ncnc2c1c1c(n2C2CC(F)(F)C2)CCC(O)c2c-1noc2C1CC1 (centres unmarked) [Example 148, 2,2,2-trifluoroacetate]
Found: 6.12

* * *

Target: G810R mutant RET kinase (Homo sapiens, UniProt P07949, G810R);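 further: HTRF KinEASE-TK enzymatic assay with 1 nM recombinant RET G810R, 1 h at 22 °C, dual-wavelength ratiometric readout, 100% control without compound, 0% from pre-quenched reactions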
Assay: biochemical
outcome.measure: pIC50
API: returns pIC50 as number; meaning -log10 of concentration in mol/L.

// below: answered molecules
>>> test_result("Nc1ncnc2c1c1c(n2C2CCOC2)CCC(O)c2c-1noc2C1CC1 (stereo not shown)")
7.06
>>> test_result("COCCn1ccc(NC(=O)c2ccc3cc4n(c3c2)CCCc2c-4c3c(N)ncnc3n2C(C)C)n1")
6.73
>>> test_result("CC(C)n1c2c(c3c(N)ncnc31)-c1noc(C3CC3)c1C=CC2")
6.74
>>> test_result("CC(C)n1c2c(c3c(N)ncnc31)-c1noc(C3CC3)c1CN(CCO)C2 [Example 40, 2,2,2-trifluoroacetate]")
6.14
>>> test_result("C[C@H](n1c2c(c3c(N)ncnc31)-c1noc(C3CC3)c1[C@@H](O)CC2)C(F)(F)F (single isomer, unassigned) [Example 146, 2,2,2-trifluoroacetate]")
7.37
>>> test_result("CC(C)n1c2c(c3c(N)ncnc31)-c1noc(C3CC3)c1CN(c1ccn(C)n1)C2")
6.54

Lookup: // lookup pIC50 for `CC(C)n1c2c(c3c(N)ncnc31)-c1cc3ccc(C(=O)NC4CC4)cc3n1CCC2`
Found: 6.69

Just for reference, patent US11964988B2 is where these values come from.
